- Assay overview: Separate cell-based assays (IC50 of Cpd4)
Measured endpoint: IC50 (nM)

CCCCOc1cccc(-c2ccc(-c3cc(C(=O)O)c4cc(F)ccc4n3)cc2)c1	11
